- System under test: human Claudin18.2 (human)
- Experiment: cell-based or functional assay
Please respond with reported CDC EC50 for every item in the list.
Numeric answer only, unit µg/mL assumed.

Exercise: Entry under review: 409D1A7 (antibody, V domains shown) VH: DVQLVESGGGLVQPGGSRKLSCAASGFTFSGFGMHWIRQTPEKGLEWVAYISSGSRPIYYADTVKGRFTISRDNPKNTLFLHMTSLRSEDTAMYFCARFYYGNSFDHWGQGTLVTVSA VL: DIVMTQSPSFLTVTAGEKVTMNCKSSQSLLNSGNQRNYLTWYQQKPGQPPKLLIYWASTRESGVPDRFTGSGSGTDFTLTISSVQAEDLALYYCQNAYSFPLTFGAGTKLELN . Reported CDC EC50?
Key: 7.78

Exercise: Also 258D11C4 (antibody, V domains shown) VH: QAYLQQSGAELVRSGASVKMSCKASGYTFSSHNMHWVKQTPGQGLEWIGYIYPGNGGTNYNQKFKGKATLTADTSSSTAYMQISSLTSEDSAVYFCTRDYYGNSFAYWGQGTLVTVSA VL: DIVMTQSPSSLTEKAGERVSMSCKSSQSLFNSGNQKNYLTWYQQKPGQPPKLLIYWASTRQSGVPDRFTGSGSGTDFTLTISSVQAEDLAVYYCQNDYWFPFTFGAGTKLELK , if possible.
Key: 1.05

Exercise: Here is the next binder: 419A10D4 (antibody, V domains shown) VH: DVQLVESGGGLVQPGGSRKLSCAASGFTFSGFGMHWIRQTPEKGLEWVAYISSGSRPIYYADTVKGRFTISRDNPKNTLFLQMTSLRSEDTAMYFCARFYYGNSFDHWGQGTLVTVSA VL: DIVMTQSPSFLTVTAGEKVTMSCKSSQSLLNSGNQRNYLTWYQQKPGQPPKLLIYWASTRESGVPDRFTGSGSGTDFTLTVSSVQAEDLALYYCQNAYSFPLTFGAGTKLELK
Key: 1.88

Exercise: Now try 182D10F1 (antibody, V domains shown) VH: QAYLQQSGAELVRSGASVKMSCKASGYTFSSYNMHWVKQTPGQGLEWIGYIYPGNGGTNYNQKFKGKATLTADTSSSTAYMQISSLTSEDSAVYFCLTGRGFTYWGQGTLVTVSA VL: DIVMTQSPSSLTVTAGEKVTMNCKSSQSLFNSGNQKNYLTWYQQKPGQPPKLLIYRASTRESGVPDRFTGSGSGTDFTLTISSVQAEDLAVYYCQNDYSYPLTFGVGTKLELK .
Key: 0.811

Exercise: What would you report for 232C5E3 (antibody, V domains shown) VH: QAYLQQSGAELVRSGASVKMSCKASGYTFTSHNIHWIKQTPGKGLEWIGYIYPGNGGTNYNQKFKAKATLTADTSSSTAYMQISSLTSEDSAVYFCARDYYGNSFAYWGQGTLVTVSA VL: DIMMTQSPSSLTETAGEKVSMSCKSSQSLLNSGNQKNYLTWYQQKPGQPPKLLIYWASTRESGVPDRFSGSGSGTDFTLTISSVQAEDLAVYYCQNGYRFPFTFGAGTKLELK ?
Key: 0.575
